Listed below: IC50 values for each entry.
# EXPERIMENTAL SYSTEM: BACE1 (Homo sapiens (Human))
# Sequence (P56817 46-501, species assumed): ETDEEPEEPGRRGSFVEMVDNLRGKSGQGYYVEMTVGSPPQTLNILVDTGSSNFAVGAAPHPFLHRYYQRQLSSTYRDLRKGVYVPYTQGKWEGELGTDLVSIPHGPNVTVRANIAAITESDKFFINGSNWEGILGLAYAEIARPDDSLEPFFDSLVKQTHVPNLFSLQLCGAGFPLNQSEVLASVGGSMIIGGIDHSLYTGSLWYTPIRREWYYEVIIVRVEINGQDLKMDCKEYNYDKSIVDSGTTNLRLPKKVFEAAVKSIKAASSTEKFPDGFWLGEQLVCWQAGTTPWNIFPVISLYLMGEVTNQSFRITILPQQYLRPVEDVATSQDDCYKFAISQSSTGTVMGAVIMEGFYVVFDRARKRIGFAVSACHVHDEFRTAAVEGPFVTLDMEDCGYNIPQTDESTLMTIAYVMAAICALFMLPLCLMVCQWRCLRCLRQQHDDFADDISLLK
# ASSAY PROTOCOL: BACE1 cell assay
# Format: cell-based
Reply with just the number (in nM).

Known results for molecules:
CNC(=O)[C@]12C[C@H]1[C@@](C)(c1cc(/C=C(\F)c3cnc(OCc4cnco4)cn3)ccc1F)N=C(N)S2; 608
Cc1cc(COc2cnc(/C(F)=C/c3ccc(F)c([C@@]4(C)N=C(N)S[C@@]5(C(=O)N(C)C)C[C@H]54)c3)cn2)on1; 40

-- ask Name the reported IC50 value associated with the molecule C#CCOc1cnc(/C(F)=C/c2cnc(F)c([C@@]3(C)N=C(N)S[C@@]4(C(=O)N5CCOCC5)C[C@H]43)c2)cn1
-- reply 4.5

-- ask Name the reported IC50 value associated with the molecule C[C@]1(c2cc(/C=C(\F)c3ccc(C#N)cn3)cnc2F)N=C(N)S[C@@]2(C(=O)NCC(F)F)C[C@H]21
-- reply 54.2

-- ask Name the reported IC50 value associated with the molecule C[C@]1(c2cc(/C=C(\F)c3ccc(C#N)cn3)ccc2F)N=C(N)S[C@@]2(C(=O)N3CCOC[C@@H]3CO)C[C@H]21
-- reply 2.6

-- ask Name the reported IC50 value associated with the molecule C[C@]1(c2cc(/C=C(\F)c3ccc(C#N)cn3)ccc2F)N=C(N)S[C@@]2(C(N)=O)C[C@H]21
-- reply 2.2

* * *

# EXPERIMENTAL SYSTEM: Cathepsin D (CatD) (Homo sapiens (Human), UniProt P07339)
# Sequence (P07339 65-412, species assumed): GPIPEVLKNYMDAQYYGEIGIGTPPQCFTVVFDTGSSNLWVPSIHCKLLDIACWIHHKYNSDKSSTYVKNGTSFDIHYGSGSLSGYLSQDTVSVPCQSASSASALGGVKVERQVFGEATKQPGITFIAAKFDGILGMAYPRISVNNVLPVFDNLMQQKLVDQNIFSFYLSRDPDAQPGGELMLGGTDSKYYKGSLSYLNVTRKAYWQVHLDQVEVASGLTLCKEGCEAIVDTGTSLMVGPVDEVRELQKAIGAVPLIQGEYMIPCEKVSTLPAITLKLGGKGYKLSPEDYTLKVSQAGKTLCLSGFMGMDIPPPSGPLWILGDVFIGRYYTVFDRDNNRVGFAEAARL
# ASSAY PROTOCOL: CatD assay
# Type: biochemical
# EXPERIMENTAL CONDITIONS: read-out: IC50 IP (μM) CatD
EXPERIMENTAL ENDPOINT: IC50 (µM)
Reply with just the number (in µM).

CC(=O)[C@]12C[C@H]1[C@@](C)(c1cc(/C=C(\F)c3cnc(OCC(F)(F)F)cn3)ccc1F)N=C(N)S2; 400
CC1CCCN1C(=O)[C@]12C[C@H]1[C@@](C)(c1cc(/C=C(\F)c3ccc(C#N)cn3)ccc1F)N=C(N)S2 (stereo partly shown); 70.9
CN(C)C(=O)[C@]12C[C@H]1[C@@](C)(c1cc(/C=C(\F)c3ncc(C#N)s3)ccc1F)N=C(N)S2; 110
C#CCOc1cnc(/C(F)=C/c2ccc(F)c([C@@]3(C)N=C(N)S[C@@]4(C#N)C[C@H]43)c2)cn1; 124

-- ask Name the reported IC50 value associated with the compound C[C@]1(c2cc(/C=C(\F)c3ccc(C#N)cn3)ccc2F)N=C(N)S[C@@]2(C(=O)N3CCOCC3)C[C@H]21
-- reply 495

-- ask Name the reported IC50 value associated with the compound CC(O)CCNC(=O)[C@]12C[C@H]1[C@@](C)(c1cc(/C=C(\F)c3ccc(Cl)cn3)ccc1F)N=C(N)S2 (stereo partly shown)
-- reply 57.6

-- ask Name the reported IC50 value associated with the compound C[C@H]1CN(C(=O)[C@]23C[C@H]2[C@@](C)(c2cc(/C=C(\F)c4ccc(C#N)cn4)ccc2F)N=C(N)S3)C[C@H](C)O1
-- reply 411

* * *

# EXPERIMENTAL SYSTEM: BACE2 (Homo sapiens (Human), UniProt Q9Y5Z0)
# Sequence (Q9Y5Z0 63-518): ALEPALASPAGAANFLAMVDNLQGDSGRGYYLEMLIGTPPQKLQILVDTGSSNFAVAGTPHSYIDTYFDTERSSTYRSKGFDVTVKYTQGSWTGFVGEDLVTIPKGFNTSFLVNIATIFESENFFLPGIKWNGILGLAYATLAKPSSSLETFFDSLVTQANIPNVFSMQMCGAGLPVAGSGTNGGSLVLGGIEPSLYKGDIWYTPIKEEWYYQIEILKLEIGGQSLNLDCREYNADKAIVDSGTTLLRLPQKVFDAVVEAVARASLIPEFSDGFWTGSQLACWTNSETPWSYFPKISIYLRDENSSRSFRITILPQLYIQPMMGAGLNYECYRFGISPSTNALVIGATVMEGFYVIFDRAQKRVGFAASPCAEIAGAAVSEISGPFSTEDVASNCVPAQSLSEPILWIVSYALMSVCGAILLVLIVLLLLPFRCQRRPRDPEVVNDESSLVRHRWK
# ASSAY PROTOCOL: In vitro enzymatic BACE2 FRET assay
# Format: biochemical
# EXPERIMENTAL CONDITIONS: read-out: IC50 IP (μM) BACE2 Enzyme
EXPERIMENTAL ENDPOINT: IC50 (µM)
Reply with just the number (in µM).

-- ask Name the reported IC50 value associated with the compound C[C@@H]1COC[C@@H](C)N1C(=O)[C@]12C[C@H]1[C@@](C)(c1cc(/C=C(\F)c3ccc(C#N)cn3)ccc1F)N=C(N)S2 [Example 314]
-- reply 0.24

-- ask Name the reported IC50 value associated with the compound CNC(=O)[C@]12C[C@H]1[C@@](C)(c1cc(/C=C(\F)c3cnc(C#C[Si](C)(C)C)cn3)ccc1F)N=C(N)S2 [Example 166]
-- reply 1.72

-- ask Name the reported IC50 value associated with the compound CN(C)C(=O)[C@]12C[C@H]1[C@@](C)(c1cc(/C=C\F)ccc1F)N=C(N)S2 [Example 208]
-- reply 0.117

-- ask Name the reported IC50 value associated with the compound CNC(=O)[C@]12C[C@H]1[C@@](C)(c1cc(/C=C(\F)c3ccc(C(F)(F)F)cn3)ccc1F)N=C(N)S2 [Example 224]
-- reply 0.564

-- ask Name the reported IC50 value associated with the compound C[C@]1(c2cc(/C=C(\F)c3ccc(C#N)cn3)ccc2F)N=C(N)S[C@@]2(C(=O)N3CCOCC34CCC4)C[C@H]21 [Example 331]
-- reply 0.061

-- ask Name the reported IC50 value associated with the compound CN(C)C(=O)[C@]12C[C@H]1[C@@](C)(c1cc(/C=C(\F)c3cnc(OCC(F)(F)C(F)F)cn3)cnc1F)N=C(N)S2 [Example 291]
-- reply 0.106

-- ask Name the reported IC50 value associated with the compound CC#CCOc1cnc(/C(F)=C/c2ccc(F)c([C@@]3(C)N=C(N)S[C@@]4(COC)C[C@H]43)c2)cn1 [Example 263]
-- reply 1.84

-- ask Name the reported IC50 value associated with the compound CN(C)C(=O)[C@]12C[C@H]1[C@@](C)(c1cc(/C=C(\F)c3cnc(OCC4CC4(F)F)cn3)ccc1F)N=C(N)S2 (some centres unmarked) [Example 215]
-- reply 0.051

-- ask Name the reported IC50 value associated with the compound C[C@]1(c2cc(/C=C(\F)c3ccc(C#N)cn3)ccc2F)N=C(N)S[C@@]2(C(=O)N3CC[C@@H](O)C3)C[C@H]21 [Example 333]
-- reply 0.053

-- ask Name the reported IC50 value associated with the compound C[C@]1(c2cc(/C=C(\F)c3ccc(C#N)cn3)ccc2F)N=C(N)S[C@@]2(C(=O)N3CC4CCC(C3)O4)C[C@H]21 [Example 319]
-- reply 0.097

-- ask Name the reported IC50 value associated with the compound C[C@]1(c2cc(/C=C(\F)c3ccc(C#N)cn3)ccc2F)N=C(N)S[C@@]2(C(=O)N3C4CCC3COC4)C[C@H]21 [Example 315]
-- reply 0.071
